Measured solubility, listed per entry.
Assay: Water solubility by saturating water, lyophilizing and weighing
Assay type: physicochemical
Details: thermodynamic from solid; saturated water
Description: Solubility in water was expressed in mol/L (M).
Output spec: scalar in µM, unitless text.

CCCCCCCCCCCCCC(=O)OC1Cc2c(O)cc(O)cc2OC1c1ccc(O)c(O)c1 (stereo not drawn); 4800
CCCCCCCCCCCC(=O)N[C@@H](C)C(=O)OC1Cc2c(O)cc(O)cc2OC1c1ccc(O)c(O)c1 (stereo partly drawn); 360

# next compound below
Name the reported solubility value associated with the compound CCCCCCCCCCCCCCCC(=O)N[C@@H](C)C(=O)OC1Cc2c(O)cc(O)cc2OC1c1ccc(O)c(O)c1 (stereo partly drawn)
22

----------
Measured Critical aggregation concentration (CAC), listed per entry.
experiment: Surface tension in water by the Wilhelmy plate method (surfactant properties); assay type: physicochemical; settings: 25 °C, from curve log C vs. γ
Output spec: scalar in µM, unitless text.

Solved cases (5 shown):
CCCCCCCC(=O)N[C@@H](C)C(=O)OC1Cc2c(O)cc(O)cc2OC1c1ccc(O)c(O)c1 (some centres unmarked); 100
CCCCCCCCCCCCCCCC(=O)OC1Cc2c(O)cc(O)cc2OC1c1ccc(O)c(O)c1 (centres unmarked); 10
CCCCCCCC(=O)OC1Cc2c(O)cc(O)cc2OC1c1ccc(O)c(O)c1 (centres unmarked); 890
CCCCCCCCCCCCCCCC(=O)N[C@@H](C)C(=O)OC1Cc2c(O)cc(O)cc2OC1c1ccc(O)c(O)c1 (some centres unmarked); 2
CCCCCCCCCCCC(=O)OC1Cc2c(O)cc(O)cc2OC1c1ccc(O)c(O)c1 (centres unmarked); 680

Name the reported Critical aggregation concentration (CAC) value associated with the compound CCCCCCCCCCCCCC(=O)OC1Cc2c(O)cc(O)cc2OC1c1ccc(O)c(O)c1 (centres unmarked)
590

Name the reported Critical aggregation concentration (CAC) value associated with the compound CCCCCCCCCCCC(=O)N[C@@H](C)C(=O)OC1Cc2c(O)cc(O)cc2OC1c1ccc(O)c(O)c1 (some centres unmarked)
50

Name the reported Critical aggregation concentration (CAC) value associated with the compound CCCCCCCCCCCCCC(=O)N[C@@H](C)C(=O)OC1Cc2c(O)cc(O)cc2OC1c1ccc(O)c(O)c1 (some centres unmarked)
40

----------
Measured Surface tension from CAC (γw), listed per entry.
assay: Surface tension in water by the Wilhelmy plate method (surfactant properties); type: physicochemical; conditions: 25 °C
Output spec: scalar in mN/m, unitless text.

Name the reported Surface tension from CAC (γw) value associated with the compound CCCCCCCCCCCCCC(=O)OC1Cc2c(O)cc(O)cc2OC1c1ccc(O)c(O)c1 (centres unmarked)
41

Name the reported Surface tension from CAC (γw) value associated with the compound CCCCCCCCCCCCCC(=O)N[C@@H](C)C(=O)OC1Cc2c(O)cc(O)cc2OC1c1ccc(O)c(O)c1 (some centres unmarked)
33

Name the reported Surface tension from CAC (γw) value associated with the compound CCCCCCCCCCCCCCCC(=O)OC1Cc2c(O)cc(O)cc2OC1c1ccc(O)c(O)c1 (centres unmarked)
42

Name the reported Surface tension from CAC (γw) value associated with the compound CCCCCCCCCCCC(=O)OC1Cc2c(O)cc(O)cc2OC1c1ccc(O)c(O)c1 (centres unmarked)
49

----------
assay: Surface tension in water by the Wilhelmy plate method (surfactant properties); type: physicochemical; conditions: 25 °C, calculated from curve log C vs. γ
Measured Minimum occupied area per molecule at the air–water interface (σ), listed per entry.
Express the reported value numerically, then name its unit.

CCCCCCCCCCCC(=O)N[C@@H](C)C(=O)OC1Cc2c(O)cc(O)cc2OC1c1ccc(O)c(O)c1 (some centres unmarked) [7b]; 10 Å^2/molecule

Name the reported Minimum occupied area per molecule at the air–water interface (σ) value associated with the molecule CCCCCCCCCCCCCCCC(=O)N[C@@H](C)C(=O)OC1Cc2c(O)cc(O)cc2OC1c1ccc(O)c(O)c1 (some centres unmarked) [7d]
45 Å^2/molecule

Name the reported Minimum occupied area per molecule at the air–water interface (σ) value associated with the molecule CCCCCCCC(=O)OC1Cc2c(O)cc(O)cc2OC1c1ccc(O)c(O)c1 (centres unmarked) [6a]
14 Å^2/molecule

Name the reported Minimum occupied area per molecule at the air–water interface (σ) value associated with the molecule CCCCCCCCCCCCCC(=O)OC1Cc2c(O)cc(O)cc2OC1c1ccc(O)c(O)c1 (centres unmarked) [6c]
23 Å^2/molecule
